molecular target: Tubulin (Homo sapiens) (UniProt P68371+Q9H4B7+P0DPH7+P68366+Q13509+Q71U36+P04350+Q3ZCM7+P07437+P68363+Q9BQE3+Q6PEY2+Q13885+Q9BVA1+Q9BUF5); assay: Binding affinity to microtubules, activity expressed as ID50 of compound/ID50 of paclitaxel; assay type: protein-complex assay
Quick rule for you: ID50 ratio under 10 gets yes (1), anything else gets no (0).

Completed entries (count: 3):
CC(=O)O[C@@]12CO[C@@H]1C[C@H](O)[C@@]1(C)C(=O)[C@H](O)C3=C(C)[C@@H](OC(=O)[C@H](O)[C@H](NC(=O)c4ccccc4)c4ccccc4)C[C@@](O)([C@@H](OC(=O)c4ccccc4)[C@H]21)C3(C)C :: yes (1)
CC(=O)O[C@H]1C(=O)[C@@]2(C)[C@H]([C@H](OC(=O)c3ccccc3)[C@]3(O)C[C@H](OC(=O)[C@H](O)[C@@H](NC(=O)c4ccccc4)c4ccccn4)C(C)=C1C3(C)C)[C@]1(OC(C)=O)CO[C@@H]1C[C@@H]2O :: yes (1)
CC(=O)O[C@@]12CO[C@@H]1C[C@H](O)[C@@]1(C)C(=O)[C@H](O)C3=C(C)[C@@H](OC(=O)CCc4ccccc4)C[C@@](O)([C@@H](OC(=O)c4ccccc4)[C@H]21)C3(C)C :: no (0)

Query string: Threshold test, ID50 ratio < 10: C/C=C/C(=O)O[C@H]1C[C@@]2(O)[C@@H](OC(=O)c3ccccc3)[C@@H]3[C@]4(OC(C)=O)CO[C@@H]4C[C@H](O)[C@@]3(C)C(=O)[C@H](OC(C)=O)C(=C1C)C2(C)C
Result string: no (0)

Query string: What about this compound? CC(=O)O[C@H]1C(=O)[C@]2(C)[C@@H](OC(=O)c3ccccc3)C[C@H]3OC[C@@]3(OC(C)=O)[C@H]2[C@H](OC(=O)c2ccccc2)[C@]2(O)C[C@H](OC(=O)[C@H](O)[C@@H](NC(=O)c3ccccc3)c3ccccc3)C(C)=C1C2(C)C
Result string: yes (1)

Query string: What about this compound? CC(=O)O[C@H]1C(=O)[C@@]2(C)[C@H]([C@H](OC(=O)c3ccccc3)[C@]3(O)C[C@H](OC(=O)C[C@@H](NC(=O)OC(C)(C)C)c4ccccc4)C(C)=C1C3(C)C)[C@]1(OC(C)=O)CO[C@@H]1C[C@@H]2O
Result string: yes (1)

Query string: What about this compound? C/C=C(\C)C(=O)N[C@@H](c1ccccc1)[C@@H](O)C(=O)O[C@H]1C[C@@]2(O)[C@@H](OC(=O)c3ccccc3)[C@@H]3[C@]4(OC(C)=O)CO[C@@H]4C[C@H](O)[C@@]3(C)C(=O)[C@H](O)C(=C1C)C2(C)C
Result string: yes (1)

Query string: What about this compound? CC(=O)O[C@@]12CO[C@@H]1C[C@H](O)[C@@]1(C)C(=O)CC3=C(C)[C@@H](OC(=O)[C@H](O)[C@@H](NC(=O)c4ccccc4)c4ccccc4)C[C@@](O)([C@@H](OC(=O)c4ccccc4)[C@H]21)C3(C)C (stereo in doubt; 19)
Result string: no (0)

====

molecular target: Tubulin (Homo sapiens) (UniProt P68371+Q9H4B7+P0DPH7+P68366+Q13509+Q71U36+P04350+Q3ZCM7+P07437+P68363+Q9BQE3+Q6PEY2+Q13885+Q9BVA1+Q9BUF5); assay: Binding affinity to microtubules, activity expressed as ID50 of compound/ID50 of paclitaxel; type: protein-complex assay
measure: ID50 ratio
In your answer, state the number alone without any accompanying words.

Below, 3 compounds whose answers are already recorded.
CC(=O)O[C@H]1C(=O)[C@@]2(C)[C@H]([C@H](OC(=O)c3ccccc3)[C@]3(O)C[C@H](OC(=O)[C@H](O)[C@@H](NC(=O)c4ccc(C)cc4)c4ccccc4)C(C)=C1C3(C)C)[C@]1(OC(C)=O)CO[C@@H]1C[C@@H]2O :: 1.6
CC(=O)O[C@@]12CO[C@@H]1C[C@H](O)[C@@]1(C)C(=O)[C@H](O)C3=C(C)[C@@H](OC(=O)[C@H](O)[C@@H](NC(=O)OC(C)(C)C)c4ccccc4)C[C@@](O)([C@@H](OC(=O)c4ccccc4)[C@H]21)C3(C)C (stereo in doubt; 40) :: 0.5
CC(=O)O[C@H]1C(=O)[C@@]2(C)[C@H]([C@H](OC(=O)c3ccccc3)[C@]3(O)C[C@H](OC(=O)[C@H](O)[C@@H](NC(=O)c4ccccc4)c4ccc(C)cc4)C(C)=C1C3(C)C)[C@]1(OC(C)=O)CO[C@@H]1C[C@@H]2O :: 2.4

Query string: // ID50 ratio lookup, key: CC(=O)O[C@@]12CO[C@@H]1C[C@H](O)[C@@]1(C)C(=O)[C@H](O)C3=C(C)[C@@H](OC(=O)[C@H](O)[C@@H](NC(=O)OC(C)(C)C)c4ccccc4)C[C@@](O)([C@@H](OC(=O)c4ccccc4)[C@H]21)C3(C)C (stereo in doubt; 39)
Result string: 0.5
